Measured pKd, listed per entry for reference.
- Study System: SCRIB_1, Q14160
- Sequence (Q14160 718-814): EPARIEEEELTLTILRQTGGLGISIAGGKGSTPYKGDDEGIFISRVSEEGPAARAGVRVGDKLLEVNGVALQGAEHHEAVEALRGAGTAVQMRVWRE
- Protocol: holdup assay
- Parameters: key: below the threshold = too weak to quantify, mostly under pKd 3.1 to 4
- Measurement Context: plain residues with an end cap or a label only (N-terminal biotin on a linker: ttds)
Parameter: pKd

>>> print(df.to_string())
                          binder  readout_value
0    VDFPPKESSL [ACVR2A, P27037]           3.83
1  RLQRRRETQV [HPV18-E6, P06463]           4.26
2  QRQARSETLV [HPV59-E6, Q81964]           3.82
3   EVVHTPETSV [SLC16A3, O15427]           5.08
